Listed here are sequences together with their documented self-aminoacylation.
# Tested on: biotinyl-Phe-oxazolone
# testMethodNotes: self-aminoacylation, catalytic enhancement (BFO) (fold over background); higher = more active; k-Seq, kA / k0A0; sequences stand for … in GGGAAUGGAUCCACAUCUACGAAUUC…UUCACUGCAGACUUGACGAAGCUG
Variants at the floor of the assay were thinned out.
observable: self-aminoacylation

{"sequenceEntry": "AAGUUUGCUAAUAGUCCCAAU [Fam3.1 aminoacylation ribozyme variant]", "observable": "self-aminoacylation", "result": 1.36}
{"sequenceEntry": "AAAUUUGCGAAUAGUCGCAAG [Fam3.1 aminoacylation ribozyme variant]", "observable": "self-aminoacylation", "result": 1.99}
{"sequenceEntry": "AUUCACCUGGGUCAUAGGGUG [Fam2.2 aminoacylation ribozyme variant]", "observable": "self-aminoacylation", "result": 6.22}
{"sequenceEntry": "CCACACUUAAAGCAAUCCGUC [Fam1B.1 aminoacylation ribozyme variant]", "observable": "self-aminoacylation", "result": 0.452}
{"sequenceEntry": "CCACACGUCAAGCAAUCGAUC [Fam1B.1 aminoacylation ribozyme variant]", "observable": "self-aminoacylation", "result": 0.631}
{"sequenceEntry": "CUGCUUCAAACAAUCGCUCUG [Fam1A.1 aminoacylation ribozyme variant]", "observable": "self-aminoacylation", "result": 4.43}
{"sequenceEntry": "AAGUUUGCAAAUAGUCACAAG [Fam3.1 aminoacylation ribozyme variant]", "observable": "self-aminoacylation", "result": 0.954}
{"sequenceEntry": "CCACACUUCAAACAAUCGGCC [Fam1B.1 aminoacylation ribozyme variant]", "observable": "self-aminoacylation", "result": 8.32}
